Biological target: Poly [ADP-ribose] polymerase 1 (Homo sapiens, UniProt P09874)
Sequence (P09874 whole entry): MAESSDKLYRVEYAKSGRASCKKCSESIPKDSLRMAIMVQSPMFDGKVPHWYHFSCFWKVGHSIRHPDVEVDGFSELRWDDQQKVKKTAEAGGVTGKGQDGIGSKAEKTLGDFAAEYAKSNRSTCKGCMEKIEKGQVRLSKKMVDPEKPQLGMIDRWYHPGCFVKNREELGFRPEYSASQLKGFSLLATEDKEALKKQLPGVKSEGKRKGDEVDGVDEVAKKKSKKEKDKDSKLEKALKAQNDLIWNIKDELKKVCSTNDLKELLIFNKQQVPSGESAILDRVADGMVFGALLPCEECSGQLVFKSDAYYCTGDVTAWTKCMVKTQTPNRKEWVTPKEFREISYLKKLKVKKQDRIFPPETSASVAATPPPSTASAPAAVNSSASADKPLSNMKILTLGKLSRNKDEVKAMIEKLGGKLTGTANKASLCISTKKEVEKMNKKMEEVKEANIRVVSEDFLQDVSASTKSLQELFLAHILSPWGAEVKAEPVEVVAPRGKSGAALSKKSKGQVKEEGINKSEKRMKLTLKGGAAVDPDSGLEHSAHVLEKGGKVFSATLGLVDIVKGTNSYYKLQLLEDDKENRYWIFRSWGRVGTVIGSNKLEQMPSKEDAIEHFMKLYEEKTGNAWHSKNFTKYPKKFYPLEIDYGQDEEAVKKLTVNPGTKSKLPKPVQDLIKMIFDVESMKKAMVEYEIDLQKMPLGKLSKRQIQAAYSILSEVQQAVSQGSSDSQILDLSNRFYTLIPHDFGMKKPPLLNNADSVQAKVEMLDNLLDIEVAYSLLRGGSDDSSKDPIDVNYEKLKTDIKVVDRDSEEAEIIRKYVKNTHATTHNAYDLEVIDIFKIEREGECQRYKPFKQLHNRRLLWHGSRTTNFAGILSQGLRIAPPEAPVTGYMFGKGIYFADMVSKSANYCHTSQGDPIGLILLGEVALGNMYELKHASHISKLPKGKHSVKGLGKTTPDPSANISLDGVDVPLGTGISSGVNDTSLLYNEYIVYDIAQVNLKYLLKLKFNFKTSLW
parameter: pIC50
The value called pIC50 is obtained by taking minus log10 of the concentration in mol/L.

Example entries and their recorded answers appear below.
Please tell me: pIC50 of O=C(CC[C@@H]1C[C@H](Oc2cc(F)cc(F)c2)CN1c1cc(C(F)(F)F)c(=O)[nH]n1)N1CCN(c2ncc(C(F)(F)F)cn2)CC1 [US20240294509, Compound 55] , system Poly [ADP-ribose] polymerase 1 (Homo sapiens, UniProt P09874)?
4.81

Please tell me: pIC50 of O=C(CC[C@@H]1C[C@@H](Oc2cncnc2)CN1c1cc(C(F)(F)F)c(=O)[nH]n1)N1CCN(c2ncc(C(F)(F)F)cn2)CC1 [US20240294509, Compound 63] , system Poly [ADP-ribose] polymerase 1 (Homo sapiens, UniProt P09874)?
6.75

Next item in the queue.
Please tell me: pIC50 of `O=C(CC[C@@H]1CCCN1c1cc(C(F)(F)F)c(=O)[nH]n1)N1CCN(c2ncc(C(F)(F)F)cn2)CC1` , system Poly [ADP-ribose] polymerase 1 (Homo sapiens, UniProt P09874)?
8.89
